Listed here are compounds together with their documented concentration required for 2-fold increase in APTT.
# Test system: pooled normal human plasma
# assay: Human plasma clotting time
# Format: biochemical
# reported-conditions: ∼34 to ∼68 s
parameter: concentration required for 2-fold increase in APTT

{"compound": "CC(C)CCC[C@@H](C)[C@H]1CC[C@H]2[C@@H]3CC=C4C[C@@H](OCCOc5cc(-c6oc7cc(OS(=O)(=O)[O-])cc(OCCCOc8cc(OS(=O)(=O)[O-])cc9oc(-c%10ccc(OS(=O)(=O)[O-])c(OS(=O)(=O)[O-])c%10)c(OS(=O)(=O)[O-])c(=O)c89)c7c(=O)c6OS(=O)(=O)[O-])ccc5OS(=O)(=O)[O-])CC[C@]4(C)[C@H]3CC[C@]12C.[Na+].[Na+].[Na+].[Na+].[Na+].[Na+].[Na+] [G2C]", "assay-value": "~300 µM"}
{"compound": "CC(C)CCC[C@@H](C)[C@H]1CC[C@H]2[C@@H]3CC=C4C[C@@H](OCCCCCCCCOc5cc(-c6oc7cc(OS(=O)(=O)[O-])cc(OCCCOc8cc(OS(=O)(=O)[O-])cc9oc(-c%10ccc(OS(=O)(=O)[O-])c(OS(=O)(=O)[O-])c%10)c(OS(=O)(=O)[O-])c(=O)c89)c7c(=O)c6OS(=O)(=O)[O-])ccc5OS(=O)(=O)[O-])CC[C@]4(C)[C@H]3CC[C@]12C.[Na+].[Na+].[Na+].[Na+].[Na+].[Na+].[Na+] [G8C]", "assay-value": "~37 µM"}
{"compound": "O=c1c(OS(=O)(=O)[O-])c(-c2ccc(OS(=O)(=O)[O-])c(OS(=O)(=O)[O-])c2)oc2cc(OS(=O)(=O)[O-])cc(OCCCOc3cc(OS(=O)(=O)[O-])cc4oc(-c5ccc(OS(=O)(=O)[O-])c(OS(=O)(=O)[O-])c5)c(OS(=O)(=O)[O-])c(=O)c34)c12.[Na+].[Na+].[Na+].[Na+].[Na+].[Na+].[Na+].[Na+] [G2.2]", "assay-value": "900 µM"}
{"compound": "CC(C)CCC[C@@H](C)[C@H]1CC[C@H]2[C@@H]3CC=C4C[C@@H](OCCCCCOc5cc(-c6oc7cc(OS(=O)(=O)[O-])cc(OCCCOc8cc(OS(=O)(=O)[O-])cc9oc(-c%10ccc(OS(=O)(=O)[O-])c(OS(=O)(=O)[O-])c%10)c(OS(=O)(=O)[O-])c(=O)c89)c7c(=O)c6OS(=O)(=O)[O-])ccc5OS(=O)(=O)[O-])CC[C@]4(C)[C@H]3CC[C@]12C.[Na+].[Na+].[Na+].[Na+].[Na+].[Na+].[Na+] [G5C]", "assay-value": "~200 µM"}
